Where do these numbers come from? They come from DBAASP.

Salmonella enterica subsp. enterica serovar Typhimurium ATCC 14028: recorded MIC for assorted compounds
A complete answer gives the number followed by the unit.

compound	property name	assay value
CC(C)C[C@H](NC(=O)[C@H](CCCCN)NC(=O)[C@H](CCCCN)NC(=O)[C@H](Cc1ccccc1)NC(=O)[C@H](CC(C)C)NC(=O)[C@H](CCCCN)NC(=O)[C@H](CCCCN)NC(=O)[C@H](Cc1ccccc1)NC(=O)[C@H](CCCCN)NC(=O)[C@H](CCCCN)NC(=O)[C@H](CCCN=C(N)N)NC(=O)[C@H](Cc1ccccc1)NC(=O)[C@H](CCCN=C(N)N)NC(=O)[C@H](CCCCN)NC(=O)[C@H](Cc1ccccc1)NC(=O)[C@H](CCCN=C(N)N)NC(=O)CN)C(=O)N[C@@H](CO)C(N)=O [GRFKRFRKKFKKLFKKLS]	MIC	4 µM

As a next step, examine the compound that follows.
Input line: Fill in the blank: the reported MIC of CC[C@H](C)[C@H](NC(=O)[C@H](CCCCN)NC(=O)[C@H](CCCCN)NC(=O)[C@H](Cc1ccccc1)NC(=O)[C@H](CC(C)C)NC(=O)[C@H](CCCCN)NC(=O)[C@H](Cc1c[nH]c2ccccc12)NC(=O)[C@@H](N)CCCCN)C(=O)N[C@@H](Cc1c[nH]c2ccccc12)C(=O)N[C@@H](Cc1c[nH]c2ccccc12)C(=O)N1CCC[C@H]1C(=O)N[C@@H](Cc1ccccc1)C(=O)N[C@@H](CC(C)C)C(=O)N[C@@H](CCCN=C(N)N)C(=O)N[C@@H](CCCN=C(N)N)C(N)=O [KWKLFKKIWWPFLRR] is ____.
Output line: 4 µM
